Test system: L1210 leukemia ip in BDF1 mice, survival T/C
experimental_protocol: NCI In Vivo Anticancer Drug Screen. Data for tumor model L1210 Leukemia (intraperitoneal) in B6D2F1 (BDF1) mice
experimental_context: endpoint: mean survival time; dose: 400.0 mg/kg/injection; schedule: Q01DX001 (ip); vehicle: saline; higher = longer survival
Protocol: The antitumor activity of compounds was measured in mice bearing transplantable tumors. Survival or tumor size were measured and the results are expressed as the measurement made in the treated group (T) divided by the measurement made in the vehicle treated control group (C). The tumor model used in this assay is L1210 Leukemia (intraperitoneal) in B6D2F1 (BDF1) mice
Toxic doses and inconclusive results are not listed. Peptide text beside a SMILES is read from it. * marks the point of attachment. Cbz = O=C(OCc1ccccc1)*
// reported T/C for each item listed

For orientation, consider the following solved cases.
Exam item: Which T/C value belongs to `CCOC(=O)c1ccc2c3c(ccc([N+](=O)[O-])c13)CC2` ?
Marked response: 98 % of control

Exam item: Field request: T/C | item: `CS(=O)(=O)Oc1c(Cl)cc(Cl)c2ccccc12`
Marked response: 101 % of control

Exam item: Please report the recorded T/C for `O=S(=O)(CCCCCl)Cc1ccccc1` .
Marked response: 93 % of control

Exam item: Reported T/C for COC(=O)C(CC(C)C)NC(=O)C(Cc1ccccc1)NC(=O)OCc1ccccc1 (stereo not drawn) (Cbz-Phe-Leu-OMe; configuration not given here) : what is it?
Marked response: 91 % of control

Exam item: Any idea what T/C was measured for `Nc1nc2c(c(-c3ccc(Cl)cc3)n1)CN(CCCC(=O)O)C2=O` ?
Marked response: 100 % of control

Exam item: Give the measured T/C of `N#CCCN1CCC(=O)c2ccccc21` .
Marked response: 101 % of control

Next:
Exam item: May I ask what T/C has been recorded for `O=C(O)/C=C\C(=O)Nc1ccc(Cc2ccc(NC(=O)/C=C\C(=O)O)cc2)cc1` ?
Marked response: 103 % of control
